- measured_target: T1, 4H2692-bN
- T1 chain: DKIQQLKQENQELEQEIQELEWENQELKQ
- test_description: two-hybrid library CCNG1;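 further: natural log of median RNA to DNA barcode read ratio; higher means stronger binding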
measure_name: interaction score

1) DKIQQLEQENQELEQKIQELKWKNQELEQ [4H2223-bN] :: -0.818
2) DEIQQLEQENQELEQKNQELEWKIQELKQ [4H182-bN] :: 0.536

a. DKIQQLEQKNQELEQKIQELKWEIQELEQ [4H2473-bN]
b. DKIQQLEQEIQELKQENQELEWKIQELKQ [4H2134-bN]
c. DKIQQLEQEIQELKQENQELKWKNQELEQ [4H2143-bN]
d. DKIQQLKQENQELEQEIQELEWENQELKQ [4H2692-bN]
e. DEIQQLEQEIQELKQKNQELKWEIQELEQ [4H121-bN]
Ask: Please rank these binders by interaction score in descending order. Returns: the labels listed in the requested order.
Result: b, d, c, a, e
(b: 0.473, d: 0.234, c: -0.295, a: -0.666, e: -1.02)
